Measured values drawn from PubChem BioAssay AID1159580 for this set.

# Experiment: chemical genetic growth profiling, strain panel (AID 1159580);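 note: tested at 20 µM; growth read once vehicle control cultures reached saturation at 30 °C; 1 = growth at the plate median or of vehicle wells; lower values mean less growth of the strain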
# Condition Set: S. cerevisiae deletion strains, growth OD, locus YGR078C, strain PAC10, hits give low values
Among all 5,500 compounds or so, about 2,000 (36%) were called active. Roughly 18% stayed inconclusive and do not appear here. The list shows a part of the results.
Quantity: normalized growth

{"Compound": "COc1ccc2[nH]c(I)c(CCNC(C)=O)c2c1", "Quantity": "normalized growth", "Value Measured": 1.02}
{"Compound": "NNC(=S)Nc1cc(C(F)(F)F)ccc1Cl", "Quantity": "normalized growth", "Value Measured": 0.848}
{"Compound": "COc1c2c(cc3occ(-c4ccc5c(c4)OCO5)c(=O)c13)OC(C)(C)C=C2", "Quantity": "normalized growth", "Value Measured": 0.982}
{"Compound": "NCCS", "Quantity": "normalized growth", "Value Measured": 1.02}
{"Compound": "COc1cc2ccc(=O)oc2c(O)c1O", "Quantity": "normalized growth", "Value Measured": 0.98}
{"Compound": "CCCc1nc(C(C)(C)O)c(C(=O)OCc2oc(=O)oc2C)n1Cc1ccc(-c2ccccc2-c2nn[nH]n2)cc1", "Quantity": "normalized growth", "Value Measured": 1.02}
{"Compound": "CC1(C)C=Cc2c(cc3occ(-c4ccc5c(c4)OCO5)c(=O)c3c2O)O1", "Quantity": "normalized growth", "Value Measured": 0.98}
{"Compound": "Cn1c([N+](=O)[O-])cnc1COC(N)=O", "Quantity": "normalized growth", "Value Measured": 1.01}
{"Compound": "Cc1ccc(C(=O)NNC(=O)c2ccncc2)c(C)c1", "Quantity": "normalized growth", "Value Measured": 1}
{"Compound": "C/C=C(/C)C(=O)O[C@H]1C(C)=C2[C@H]([C@@H]1OC(=O)CCCCCCC)[C@@](C)(OC(C)=O)C[C@H](OC(=O)CCC)[C@@]1(O)[C@H]2OC(=O)[C@@]1(C)O", "Quantity": "normalized growth", "Value Measured": 0.995}
{"Compound": "COc1ccccc1N=C1SCC(=O)N1Cc1ccco1", "Quantity": "normalized growth", "Value Measured": 0.981}
{"Compound": "CC(C)=CCc1c(O)cc2occ(-c3ccc4c(c3)OCO4)c(=O)c2c1O", "Quantity": "normalized growth", "Value Measured": 0.997}
{"Compound": "O=C1OC(=O)C2C3CCC(O3)C12 (stereo not given)", "Quantity": "normalized growth", "Value Measured": 1.03}
{"Compound": "CCCc1ccc(OC)cc1NC(C)=O", "Quantity": "normalized growth", "Value Measured": 1.02}
{"Compound": "CCCCC(=O)N(Cc1ccc(-c2ccccc2-c2nn[nH]n2)cc1)[C@H](C(=O)O)C(C)C", "Quantity": "normalized growth", "Value Measured": 0.988}
{"Compound": "O=c1c(-c2ccc3c(c2)OCO3)coc2cc(O)ccc12", "Quantity": "normalized growth", "Value Measured": 1.01}
{"Compound": "COC(=O)C1=CO[C@@H](O[C@@H]2O[C@H](CO)[C@@H](O)[C@H](O)[C@H]2O)[C@@H]2[C@@H](C)[C@@H](O)C[C@H]12", "Quantity": "normalized growth", "Value Measured": 1}
{"Compound": "CN1Cc2c(N)cccc2C(c2ccccc2)C1 (stereo not given)", "Quantity": "normalized growth", "Value Measured": 0.991}
{"Compound": "Cc1ccc(/C(C#N)=C2C=C/C(=N/O)C(Cl)=C\\2Cl)cc1", "Quantity": "normalized growth", "Value Measured": 0.975}
{"Compound": "CCOc1nc2cccc(C(=O)OC(C)OC(=O)OC3CCCCC3)c2n1Cc1ccc(-c2ccccc2-c2nn[nH]n2)cc1 (stereo not given)", "Quantity": "normalized growth", "Value Measured": 0.988}
